meta.source: patent US4335138A

PROTOCOL_NOTES: in vivo
REPORTED_CONDITIONS: rat, ip, Therapeutic range
Threshold 7: selectivity ratio strictly smaller gives satisfied, otherwise not satisfied.

These solved cases illustrate the format of a correct answer.
[[record]]
molecule = "CC(=O)[C@]1(COC(=O)NC2CCCC2)C[C@@H]2C=C[C@H]1C2 (relative stereo)"
category_label = "satisfied"

[[record]]
molecule = "CCCNC(=O)OCC1(C(C)=O)CC=CCC1 (stereo not drawn)"
category_label = "not satisfied"

[[record]]
molecule = "CCC(C)NC(=O)OC[C@@]1(C(C)=O)C[C@@H]2C=C[C@H]1C2 (stereo partly drawn)"
category_label = "satisfied"

[[record]]
molecule = "CC(=O)[C@]1(COC(=O)NCC(C)C)C[C@@H]2C=C[C@H]1C2 (relative stereo)"
category_label = "not satisfied"

[[record]]
molecule = "CCCNC(=O)OC[C@@]1(C(C)=O)C[C@@H]2C=C[C@H]1C2 (relative stereo)"
category_label = "not satisfied"


Item CC(=O)[C@]1(COC(=O)NC(C)C2CC2)C[C@@H]2C=C[C@H]1C2 (stereo partly drawn) : selectivity ratio beneath 7, strictly?
not satisfied

Just wondering, is selectivity ratio of CC(=O)[C@]1(COC(=O)NC(C)C)C[C@@H]2CC[C@H]1C2 (relative stereo) below 7?
not satisfied

Report whether reported selectivity ratio is lower than 7 (strictly) for CC(=O)[C@]1(COC(=O)NC(C)C)C[C@@H]2C=C[C@H]1C2 (relative stereo)
satisfied

====

Test system: rats
PROTOCOL_NOTES: Hypnotic action on intraperitoneal administration (period of absence of the righting reflex, duration of sleep)
Assay type: in vivo, female Sprague-Dawley rats
REPORTED_CONDITIONS: rat, in vivo, ip
RECORDED_METRIC: R.A. (relative activity)
Answer using only a numeral; do not append any unit.

# count of solved cases: 4
[[record]]
compound = "CC(=O)[C@]1(COC(=O)NC(C)C)C[C@@H]2C=C[C@H]1C2 (relative stereo) [Example 7]"
tested_on = "rats"
recorded_metric = "R.A. (relative activity)"
measurement = 3.35

[[record]]
compound = "CC(=O)[C@]1(COC(=O)NC(C)C2CC2)C[C@@H]2C=C[C@H]1C2 (some centres unmarked) [Example 98]"
tested_on = "rats"
recorded_metric = "R.A. (relative activity)"
measurement = 2.29

[[record]]
compound = "CC(=O)[C@]1(COC(=O)NC(C)C)C[C@@H]2CC[C@H]1C2 (relative stereo) [Example 36]"
tested_on = "rats"
recorded_metric = "R.A. (relative activity)"
measurement = 1.84

[[record]]
compound = "CCC(C)NC(=O)OC[C@@]1(C(C)=O)C[C@@H]2C=C[C@H]1C2 (some centres unmarked) [Example 88]"
tested_on = "rats"
recorded_metric = "R.A. (relative activity)"
measurement = 2.25


Then there is this compound:
Identify measured R.A. (relative activity) associated with CC(=O)[C@]1(COC(=O)NC2CCCC2)C[C@@H]2C=C[C@H]1C2 (relative stereo) [Example 15]
1.49

====

Test system: rats
PROTOCOL_NOTES: Hypnotic action on intraperitoneal administration (period of absence of the righting reflex, duration of sleep)
Assay type: in vivo, female Sprague-Dawley rats
REPORTED_CONDITIONS: rat, in vivo, ip
RECORDED_METRIC: R.A. (relative activity)
Form rule: numeric answer, no unit written next to it.

[[record]]
molecule = "CC(=O)[C@]1(COC(=O)NC2CC2)C[C@@H]2C=C[C@H]1C2 (relative stereo)"
measurement = 2.55

[[record]]
molecule = "CCCNC(=O)OCC1(C(C)=O)CC=CCC1 (stereo not shown)"
measurement = 2.43

[[record]]
molecule = "CC(=O)[C@]1(COC(=O)NCC(C)C)C[C@@H]2C=C[C@H]1C2 (relative stereo)"
measurement = 1.48


Give a short answer stating reported R.A. (relative activity) for CCCNC(=O)OC[C@@]1(C(C)=O)C[C@@H]2C=C[C@H]1C2 (relative stereo) .
3.22
